# System: 786-0 renal
# PROCEDURE_TEXT: NCI tumour cell line growth inhibition, 48 h
ASSAY_READOUT: TGI

molecule=COC(=O)/C(=C1\OC(=O)C(c2ccc(Cl)cc2)=C1O)c1ccc(Cl)cc1 assay_value="> 100 µM"
molecule=Cc1c2cc[n+](C)cc2c(C)c2c1[nH]c1ccc(OC(C)(C)C)cc12 assay_value="> 100 µM"
molecule=COc1cc2c(cc1OC)C/C(=N\O)c1cc(OC)c(OC)cc1/C=C\2 assay_value="> 100 µM"
molecule=Oc1ccc(Cl)cc1N=Nc1c(O)ccc2ccccc12 assay_value="> 100 µM"
molecule=CC(=O)Nc1ccc(S(=O)(=O)Nc2cnc3ccccc3n2)cc1 assay_value="> 100 µM"
molecule=O=C(COc1ccc(Cl)cc1Cl)NNc1ccc([N+](=O)[O-])cc1 assay_value="61.2 µM"
molecule=Cc1nc(-n2nc(-c3ccccc3)cc2-c2ccccc2)sc1C(/C=C\c1ccc([N+](=O)[O-])cc1)=N/NC(=S)NN assay_value="46 µM"
molecule="COC(=O)C1(N2CCOCC2)CCC([C@@H](c2ccccc2)C(C)[N+](=O)[O-])C1 (stereo not given in full)" assay_value="> 100 µM"
molecule=COC(=O)[C@@]1(Cc2ccc(OC(C)=O)cc2)Cc2cc3ccccc3n2N1 assay_value="> 100 µM"
molecule=CC(C)(C)c1ccc(OCCOc2ccc(C(C)(C)C)cc2NC=O)c(NC=O)c1 assay_value="37.8 µM"

----------
# Tested on: MDA-MB-435
# PROCEDURE_TEXT: NCI tumour cell line growth inhibition, 48 h
Reported TGI values follow for various compounds
ASSAY_READOUT: TGI

substance_smiles=C1=Nc2ccc(cc2)-c2ccc(cc2)N=Cc2ccccc2OCc2cccc(n2)COc2ccccc21 test_target=MDA-MB-435 assay_value="> 100 µM"
substance_smiles=NS(=O)(=O)c1ccc(NC(=O)Nc2cccc3ccccc23)cc1 test_target=MDA-MB-435 assay_value="> 100 µM"
substance_smiles=O=C(NC12CC3CC(CC(C3)C1)C2)n1cnc2c(Cl)ncnc21 test_target=MDA-MB-435 assay_value="40 µM"
substance_smiles=COc1ccc(COc2ccc(Cc3cnc(N)nc3N)cc2OC)cc1 test_target=MDA-MB-435 assay_value="> 25 µM"
substance_smiles=OC[C@@H](O)[C@H](O)[C@H](O)[C@@H](O)C1SCCCS1 test_target=MDA-MB-435 assay_value="> 100 µM"

----------
# Test system: EKVX NSCLC
# PROCEDURE_TEXT: NCI tumour cell line growth inhibition, 48 h
Reported TGI values follow for various compounds
ASSAY_READOUT: TGI

compound=O=S1(=O)CC#CC[C@@H](CO)[C@@H](CO)CC#CC1 assay_readout=TGI assay_value="> 100 µM"
compound=COC(=O)/C(=C1\OC(=O)C(c2ccc(Cl)cc2)=C1O)c1ccc(Cl)cc1 assay_readout=TGI assay_value="72.5 µM"
compound=Cc1cccc(N=Nc2ccc(O)c(CN(C)C)c2)c1 assay_readout=TGI assay_value="58.1 µM"
compound="COc1cc([C@@H]2c3cc4c(cc3[C@H](OC3OC5COC(C(C)C)OC5C(O)C3O)C3COC(=O)[C@@H]32)OCO4)cc(OC)c1OC (some centres undefined)" assay_readout=TGI assay_value="> 100 µM"
compound="CCN(CC(O)COc1ccc2c(c1)[n+]([O-])nc(N)[n+]2[O-])C(C)=O (centres undefined)" assay_readout=TGI assay_value="> 100 µM"
compound="C=C1[C@H](O)C[C@@H](C(C)C(O)CC=C(C)C)[C@@H](O)[C@@H]2C(C)=CC[C@@H]12 (some centres undefined)" assay_readout=TGI assay_value="> 100 µM"
compound="C#CCN1C(=O)CN2C(Cl)(Cl)C2(c2ccccc2)c2cc(Cl)ccc21 (centres undefined)" assay_readout=TGI assay_value="> 100 µM"
compound=C=C1C(=O)O[C@H]2[C@H]1CC/C(COC(=O)NCCc1ccc(Br)cc1)=C\CC[C@@]1(C)O[C@@H]21 assay_readout=TGI assay_value="3.29 µM"
compound="CC1(/C=C/c2ccc(-c3ccccc3)cc2)CCn2cnc3ncnc(c32)N1O (centres undefined)" assay_readout=TGI assay_value="> 100 µM"
